Property: normalized growth; scope: individual compounds
Assay: chemical genetic growth profiling, strain panel (AID 1159580)
Details: S. cerevisiae deletion strains, growth OD, locus YEL061C, strain CIN8, stronger effect = lower value
Hit rate of the full screen: of about 5,500 compounds, about 2,000 (36%) were called active. Inconclusive results (about 18%) are left out. The list shows a part of the results.
Write the number on its own, no unit after it.

Reference entries begin here.
In [3]: df
Out[3]:
                                   compound  measured
0  CC(NC(=S)Nc1ccc(Oc2ccc(Cl)cc2)cc1)c1ccccc1 (centres undefined)     0.961
1            O=C(O)C12CC3CC(CC(Br)(C3)C1)C2     0.987
2  O=C(CSc1nnc(-c2ccco2)n1-c1ccc2c(c1)OCCO2)c1cccc(F)c1     0.984
3  C[C@H]1C(=O)O[C@@H]2CCN3CC=C(COC(=O)[C@](C)(O)[C@]1(C)O)[C@H]23     0.995
4  CCOC(=O)c1c(Nc2ccccc2)sc([N+](=O)[O-])c1N     0.985

Q: Using the record for Nc1ncnc2nc[nH]c12 , state its measured normalized growth.
Ans: 0.996

Q: Identify the reported normalized growth for the following entry. CCCc1cc(C(=O)Nc2ccc(N(CC)CC)cc2)nn1-c1ccccc1
Ans: 0.895

Q: Fill in normalized growth for record O=C(CCCN1CC=C(n2c(=O)[nH]c3ccccc32)CC1)c1ccc(F)cc1
Ans: 0.985

Q: Supply normalized growth value. Item: S=C(NCc1ccco1)Nc1ccc(Oc2ccc(Cl)cc2)cc1
Ans: 0.723

Q: Return the recorded normalized growth value; entry: Cc1cccc(N(C)C(=S)Oc2ccc3ccccc3c2)c1
Ans: 0.987

Q: Fill in reported normalized growth for this entry: O=c1cc(-c2ccc(O)cc2)oc2cc(O[C@@H]3O[C@H](CO)[C@@H](O)[C@H](O)[C@H]3O[C@@H]3OC[C@](O)(CO)[C@H]3O)cc(O)c12
Ans: 1.01

Q: Return reported normalized growth. Input compound: NNC(=S)Nc1cc(C(F)(F)F)ccc1Cl
Ans: 0.807

* * *

Assay: chemical genetic growth profiling, strain panel (AID 1159580)
Conditions: S. cerevisiae deletion strains, growth OD, locus YMR205C, strain PFK2, stronger effect = lower value
The campaign covered roughly 5,500 compounds. About 2,000 (36%) were called active. Not shown: some 18% with an inconclusive outcome. This is one part of the list.
Param label: returns Fulfilled when normalized growth < 1, returns Not fulfilled otherwise, including exact equality.

In [3]: df
Out[3]:
                                   molecule  classassignment
0  O=C1OC(=O)C2C3CCC(O3)C12 (configuration not stated)    Not fulfilled
1  C[C@]12C=CC(=O)C=C1CCC1C2CC[C@]2(C)C(=O)CCC12 (some centres not stated)        Fulfilled
2  Nc1ncnc2c1ncn2[C@@H]1O[C@H](CO)[C@@H](O)[C@@H]1O    Not fulfilled
3      O=C(O)CCCN1C(=O)c2cccc3cccc(c23)C1=O    Not fulfilled
4              O=C1c2ccccc2-c2cccc3cccc1c23        Fulfilled
5  COc1cc(OC)c2c(=O)c(-c3ccc4c(c3)OCO4)coc2c1        Fulfilled

In the following, a different molecule is considered.
Q: I wonder whether COc1cc2c(cc1-c1coc3c4c(c(OC)cc3c1=O)OC(C)(C)C=C4)OCO2 has normalized growth below 1. Can you tell?
Ans: Fulfilled
